Test system: U251 CNS
experimental_details: NCI-60 one-dose screen, 48 h
test_settings: 10 µM
About 83,000 compounds went through this panel and 20% of them were active in at least one assay; those are over-represented in the sample as a whole. The source made the active and inactive calls. How the source made its calls: active means growth percent below 10; inactive means the rest.
# valid calls are active, inactive; nothing else

Consider the following illustrative entries.
compound	target_of_assay	discrete_label
COc1cc(OC(F)(F)F)ccc1C(=O)Nc1sc2c(c1C#N)CCC(=O)C2	U251 CNS	active
Cc1cc(C)nc(/N=C(\N)Nc2ccc(S(=O)(=O)Nc3nc(C)cc(C)n3)cc2)n1	U251 CNS	inactive
CCCn1c(=O)c2[nH]c(-c3ccc(OCc4nc5ccc(F)cc5[nH]4)cc3)nc2n(CCC)c1=O	U251 CNS	active
COc1cc2c(cc1OC)CN(CCCCOc1cc(O)c3c(=O)cc(-c4ccccc4)oc3c1)CC2	U251 CNS	inactive
O=C(O)CCCCCCCCCCN1C(=O)/C(=C/c2cnc(-c3ccc(Cl)cc3)s2)SC1=S	U251 CNS	active

Q: Look up the recorded call for "NS(=O)(=O)c1ccc(NC(=O)CSc2ccc(-c3ccc(Cl)cc3)nn2)c(Br)c1" in this test.
Ans: active

Q: Moving on to C=C1CCC2C3(C)COC(c4c(F)cccc4F)OC3CCC2(C)C1CC(O)C1=CCOC1=O (configuration not stated)
Ans: inactive

Q: Moving on to "CC1(C)CC[C@]23CC[C@]4(C)[C@H](CC[C@@H]5[C@@]6(C)CC[C@H](N)C(C)(C)[C@@H]6CC[C@]54C)[C@H]2[C@H]1OC3=O"
Ans: active

* * *

System: OVCAR-5 ovarian
experimental_details: NCI-60 one-dose screen, 48 h
test_settings: 10 µM
The panel holds about 83,000 compounds, 20% with a hit somewhere; the sample as a whole holds those more often. Active and inactive are the calls of the source. Rule for the calls: active = growth percent below 10; inactive = the rest.
# valid calls are label 1 (active), label 0 (inactive); nothing else

Consider the following illustrative entries.
molecule	discrete_label
Cn1cc(/C=N/Nc2cccc(Cl)n2)c2ccccc21	label 0
COC(=O)C[C@](O)(CCCC(C)(C)O)C(=O)O[C@H]1C(OC)=C[C@@]23CCC(=O)N2CCc2cc4c(cc2[C@@H]13)OCO4	label 0
CC(C)CCSc1nc(NC2CC2)c(C#N)c(-c2ccc(C(C)C)cc2)n1	label 0
O=C(c1ccc(O)cc1)C1[C@H](c2ccccc2Br)[C@@H](c2ccccc2)NC12C(=O)Nc1ccc(Cl)cc12 (some centres not stated)	label 1
CC(C)NC(=O)c1cc(-c2ccc(NC(=O)Nc3ccc(N4CCN(C)CC4)c(C(F)(F)F)c3)cc2)nc2cccnc12	label 1
Nc1nc(Nc2ccccc2)nn1Cc1c(Cl)cccc1Cl	label 0

Q: Look up the recorded call for "C/C(=N\NC(N)=S)c1ccc(Nc2nc(SC(C)C)nc(-c3ccccc3)c2C#N)cc1" in this test.
Ans: label 0

* * *

Entries and their growth values follow.
Test system: MOLT-4 leukemia
experimental_details: NCI-60 one-dose screen, 48 h (100 = growth as untreated, 0 = no growth, -100 = all killed)
test_settings: 10 µM
The panel holds about 83,000 compounds, 20% with a hit somewhere; the sample as a whole holds those more often.
Response body: numeric value in %, unit text excluded.

Q: // growth lookup, key: O=C(Cc1ccc2c(c1)CN(C1CCC(=O)NC1=O)C2=O)NCCc1ccccc1 (centres undefined)
Ans: -13.2

Q: Moving on to "CN(CCF)c1ccc(/C=C/C(=O)c2ccc(N)cc2O)cc1"
Ans: 58

Q: Moving on to "O=[N+]([O-])c1ccc(-c2nc(-c3ccccc3)c(-c3ccccc3)n2-c2ccc(S(=O)(=O)Nc3ncccn3)cc2)cc1"
Ans: 26.2

Q: Moving on to "N#Cc1ccc(-c2nn(-c3ccc(C(=O)O)cc3)cc2CNc2cccc(Br)c2)cc1"
Ans: 23.9

Q: Moving on to "CN1CCc2c(sc3ncnc(N/N=C/c4ccc5ccccc5c4)c23)C1"
Ans: 63.6

Q: Moving on to "N#Cc1c(NC(=O)c2cccc(C(F)(F)F)c2)sc2c1CCC(O)=C2"
Ans: 25.9

Q: Moving on to "C=C(c1ccc(OC)c(N)c1)c1cc(C)nc2ccccc12"
Ans: 12.5

Q: Moving on to "CC(=O)Nc1ccc(-c2cn(-c3cccc(C(=O)Nc4ccc(Cl)c(C(F)(F)F)c4)c3)nn2)cn1"
Ans: 7.02

Q: Moving on to "COC[C@@H](CC(C)C)N=C1NC(=O)/C(=C/c2ccc3ncoc3c2)N1"
Ans: 11.3

Q: Moving on to "Cc1ccc(C(=O)Nc2ccc(-n3c(C)nc4c(cnn4-c4ccccc4)c3=O)cc2)cc1"
Ans: 34.3
